Molecular target: T1, human IL-36R (on cells) (human, UniProt Q9HB29 20-575)
T1 sequence (looked up): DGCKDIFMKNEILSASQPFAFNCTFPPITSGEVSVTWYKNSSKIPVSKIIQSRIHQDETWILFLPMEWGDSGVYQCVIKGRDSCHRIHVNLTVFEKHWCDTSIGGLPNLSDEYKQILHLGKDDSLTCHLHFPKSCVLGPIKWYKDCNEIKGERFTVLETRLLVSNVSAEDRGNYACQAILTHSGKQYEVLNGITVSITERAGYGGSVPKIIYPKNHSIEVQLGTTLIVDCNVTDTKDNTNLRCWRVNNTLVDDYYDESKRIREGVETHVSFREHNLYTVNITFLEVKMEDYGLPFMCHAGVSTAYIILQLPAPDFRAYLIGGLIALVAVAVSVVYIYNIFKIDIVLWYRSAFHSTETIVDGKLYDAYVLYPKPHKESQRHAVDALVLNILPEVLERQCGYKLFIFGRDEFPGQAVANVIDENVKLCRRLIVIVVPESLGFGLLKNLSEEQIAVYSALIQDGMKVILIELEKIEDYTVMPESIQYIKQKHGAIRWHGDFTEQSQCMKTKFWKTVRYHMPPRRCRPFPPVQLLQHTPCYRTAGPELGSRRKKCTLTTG
Experiment: cell-based or functional assay
measured attribute: EC50 (nM), IL-8 secretion by primary human monocytes, human IL-36β
Use nM as the unit, but write only the number.

Record excerpt, results attached:
Humanized (HzD) 1D9 (APE5281) (antibody, V domains shown, also called 1D9 Humanized) VH: QVQLMQSGAEVKKPGASVKVSCKASGFTFTSYDINWVRQAPGQRLEWMGWIYPGDSSTKYNEKFKGRVTITADKSANTAYMELASLRSEDTAVYFCTRSFYTMDYWGQGTTVTVSS VL: DIVMTQSPLSLPVTPGEPASISCRSSKSLLHSNANTYLYWFLQKPGQSPQLLISRMSNLASGVPDRFSGSGSGTDFTLKISRVEAEDVGVYYCMQHLEYPFTFGQGTKLEIK ... 0.033
Chimeric 18D4 (APE3847) (antibody, V domains shown) VH: DVQFQESGPGLVKPSQSLSLTCTVTGYSITSDFAWNWIRQFPGNKLEWMGYISYSGDTNYNPSLKSRISITRDTSKNQFFLQLNSVTTEDTATYFCAIRGPYSFTYWGPGTLVTVSS VL: DIQMTQTTSSLSASLGDRVTINCRASQDINNYLNWYQQKPDGTIRLLIYYTSRLHSGVPSRFSPNGSGTDYSLTINNLEQEDIATYFCQQGHTLPWTFGGGTKLEIK ... 6
Hzd 5D3 (APE6060) (antibody, V domains shown, also called 5D3 Humanized) VH: QVQLVQSGAEVKKPGASVKVSCKASGYTFTNYWMNWVRQAPRQGLEWMGMFHPTGDVTRLNQKFKDRVTMTRDTSTSTVYMELSSLRSEDTAVYYCARTTSMIIGGFAYWGQGTLVTVSS VL: DIVMTQTPLSLSVTPGQPASISCRSSKSLLHRNAITYFYWYLQKPGQPPQLLIYQMSNLASGVPDRFSGSGSGTDFTLKISRVEAEDVGVYYCAQNLELPLTFGGGTKVEIK ... 0.9
Hzd 5D3 (APE6194) (antibody, V domains shown, also called 5D3 Humanized) VH: QVQLVQSGAEVKKPGASVKVSCKASGYTFTNYWMNWVRQAPRQGLEWMGMFHPYGDVTRLNQKFKDRVTMTRDTSTSTVYMELSSLRSEDTAVYYCARTTSMIIGGFAYWGQGTLVTVSS VL: DIVMTQTPLSLSVTPGQPASISCRSSKSLLHRNAITYFYWYLHKPGQPPQLLIYQMSNLASGVPDRFSGSGSGTDFTLKISRVEAEDVGVYYCAQNLELPLTFGGGTKVEIK ... 0.105

Please examine the following record next.
Query: // EC50 (nM), IL-8 secretion by primary human monocytes, human IL-36β lookup, key: Hzd 5D3 (APE6155) (antibody, V domains shown, also called APE6917; APE06155) VH: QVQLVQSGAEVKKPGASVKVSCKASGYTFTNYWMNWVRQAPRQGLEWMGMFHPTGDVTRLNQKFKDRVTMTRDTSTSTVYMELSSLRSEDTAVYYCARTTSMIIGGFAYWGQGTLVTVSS VL: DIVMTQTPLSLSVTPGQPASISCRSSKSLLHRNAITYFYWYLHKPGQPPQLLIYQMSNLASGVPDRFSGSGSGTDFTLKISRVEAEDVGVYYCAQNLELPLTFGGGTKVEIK
Result: 0.117

Values were extracted from patent US20200087408A1.
